# MEASUREMENT_TARGET: Protein phosphatase methylesterase 1 (Homo sapiens)
# PROCEDURE_DETAILS: inhibitors of human PME-1 in Maybridge library (AID 2291)
# CONDITION: recombinant PME-1, FP-Rh probe fluorescence polarization; at 9 µM; hits give high values
Among all 16,000 compounds or so, about 75 (0.5%) were called active. Shown is part of a subset that was picked to be rich in actives.
Collected inhibition values appear next to each entry.
REPORTED_ENDPOINT: inhibition (%)

>>> reading("COC(=O)c1scc(S(=O)(=O)Cc2ccco2)c1N/N=C(\\C#N)S(=O)(=O)C(C)C")
7.89
>>> reading("CC(=O)Nc1cccc([N+](=O)[O-])c1")
2.8
>>> reading("N#Cc1cccnc1NNC(=O)c1ccccc1C(=O)O")
-1.06
>>> reading("COC(=O)c1cnc(Oc2ccc(N)cc2)cc1C(F)(F)F")
0.526
>>> reading("CCCC1NC(=O)NC(C)=C1C(=O)OCC (stereo not drawn)")
-4.5
>>> reading("Cc1ccc2oc(=O)n(CC/C(N)=N/OC(=O)c3ccc(C(F)(F)F)nc3C)c2c1")
4.33
>>> reading("NNC(=O)c1cc2ccccc2s1")
7.18
>>> reading("CCOC(=O)CNC(=O)CCc1cc(OC)c(OC)c(OC)c1")
6.62
>>> reading("COC(=O)c1cc(OC)c(OC)cc1NC(=O)CSc1ccc(Cl)cc1")
5.14
>>> reading("OC(COc1ccc(F)cc1)(c1ccccc1)c1ccccc1")
2.52
>>> reading("COc1cc(CC/C(C)=N/O)ccc1O")
3.22
>>> reading("CN(Cc1nnc(-c2ccc3ccccc3c2)o1)c1nnc(C(F)(F)F)s1")
3.28
>>> reading("COc1c(Br)cc(C#N)cc1Br")
7.88
>>> reading("O=C(Nc1ccccc1)O/N=C1/CCCc2occc21")
-1.78
>>> reading("Cc1nc2ccccn2c1C(=O)N/N=C/c1cn(-c2ccccc2)nc1-c1cccs1")
1.07
>>> reading("NC(=O)c1c(C(F)(F)F)cc(C(F)(F)F)cc1C(F)(F)F")
-0.0338
>>> reading("CC(=O)Nc1cccc(-n2nnc(SCC(=O)c3cc(-c4ccccc4)no3)n2)c1")
-46.5
>>> reading("Cn1c(=O)c(C#N)cn(-c2ccccc2)c1=O")
2.81
>>> reading("CC(C)(C)c1ccc(NC(=O)c2ccco2)c(NC(=O)C(Cl)(Cl)Cl)c1")
2.58
>>> reading("Nc1ccccc1SCc1cc([N+](=O)[O-])cc2c1OCOC2")
5.44
>>> reading("CCCCc1c(COC)nc(-c2ccc(Cl)cc2)[nH]c1=O")
2.14
>>> reading("Clc1ccc(C2=NN(Cc3ccccc3)CC2)s1")
2.04
>>> reading("COc1cc(NC(=O)COc2cc(Cl)c(Cl)cc2Cl)cc(OC)c1OC")
-4.1
>>> reading("CC(C)S(=O)(=O)/C(C#N)=C/c1ccccc1OC(F)(F)F")
2.58
>>> reading("O=C(Nc1ccccc1)N1CCN(c2ncnc3sccc23)CC1")
1.02
>>> reading("CCCCc1ccc(-n2c(-c3ccc(F)cc3)coc2=O)cc1")
2.07
>>> reading("Cn1c(S(=O)(=O)O)nc2ccccc21")
3.94
>>> reading("COc1ccc(/C=C(\\NC(=O)c2ccccc2)C(=O)N/N=C/c2ccc3c(c2)OCO3)cc1")
-5.56
>>> reading("CCOC(=O)/C(C#N)=C/N=C(N/N=C/c1cccs1)SC")
-1.55
>>> reading("COC(=O)c1sc(SC)c(-c2ccn[nH]2)c1C")
2.07
>>> reading("CCOC(=O)c1c(N/N=C\\c2ccccc2O)n[nH]c1C")
7.03
>>> reading("O=S(=O)(c1ccc2c(c1)OCCO2)N1CCN(c2ccc(C(F)(F)F)cn2)CC1")
27.1
>>> reading("O=C(O)c1ccccc1/C=N/Nc1cc(Cl)ccc1Cl")
6.19
>>> reading("CCCCOC(=O)c1ccc(-c2ccccn2)s1")
5.14
>>> reading("CCOC(=O)NC(=O)/C(=C/NCc1cccs1)C(=O)OCC")
0.233
>>> reading("O=S(=O)(Oc1cccc(C(F)(F)F)c1)c1cc(S(=O)(=O)c2ccccc2)cs1")
-3.1
>>> reading("COc1ccc(NC(=O)C2CC(C)=C(C)CC2C(=O)O)c(N2CCOCC2)n1 (stereo not drawn)")
1.52
>>> reading("NC(CC(=O)O)c1ccccc1 (stereo not drawn)")
6.22
>>> reading("O=C(/C(=N\\N=C\\c1ccc2c(c1)OCO2)c1ccccc1)c1ccccc1")
4.75
>>> reading("N#Cc1nccnc1N1CCN(c2ccccc2)CC1")
1.69
>>> reading("C/C(=N\\NC(N)=S)c1cc2cc(Cl)ccc2o1")
-1.43
>>> reading("OC(COc1ccc(Cl)c(Cl)c1)CN1CCC(Nc2nccc(C(F)(F)F)n2)CC1 (stereo not drawn)")
-0.258
>>> reading("CS(=O)(=NC(=O)c1cc2ccccc2o1)c1ccc(Cl)cc1 (stereo not drawn)")
4.96
>>> reading("Cc1ccc(OC(=O)c2nn(-c3ccccc3)nc2C)c([N+](=O)[O-])n1")
-1.37
>>> reading("O=C(Oc1ccccc1N1CCCCC1)c1sc2ccccc2c1Cl")
-0.751
>>> reading("O=C(c1cc(-c2cccs2)on1)N1CCCCC1")
-4.77
>>> reading("Nc1nc(C23CC4CC(CC(C4)C2)C3)cs1")
8.45
>>> reading("O=C(Sc1ccccc1)c1ccc(C(F)(F)F)cc1")
-0.43

---

# MEASUREMENT_TARGET: Protein phosphatase methylesterase 1 (Homo sapiens) (UniProt Q9Y570)
# Sequence (Q9Y570 whole entry, looked up): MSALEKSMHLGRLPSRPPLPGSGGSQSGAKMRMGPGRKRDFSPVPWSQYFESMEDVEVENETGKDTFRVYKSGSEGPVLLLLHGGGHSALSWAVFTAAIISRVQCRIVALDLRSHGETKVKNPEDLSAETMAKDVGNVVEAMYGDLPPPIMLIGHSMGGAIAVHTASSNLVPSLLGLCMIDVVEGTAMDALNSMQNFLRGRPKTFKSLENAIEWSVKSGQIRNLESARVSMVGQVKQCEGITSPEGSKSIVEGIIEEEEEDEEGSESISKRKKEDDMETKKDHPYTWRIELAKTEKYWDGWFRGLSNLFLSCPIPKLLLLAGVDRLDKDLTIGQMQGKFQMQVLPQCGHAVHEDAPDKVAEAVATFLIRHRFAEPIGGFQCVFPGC
# PROCEDURE_DETAILS: inhibitors of human PME-1 in Maybridge library (AID 2291)
# CONDITION: recombinant PME-1, FP-Rh probe fluorescence polarization; at 9 µM; hits give high values
Out of some 16,000 compounds screened, about 75 (0.5%) were called active. The sample as a whole holds a higher share of actives than the screen did.
REPORTED_ENDPOINT: inhibition (%)

>>> reading("Fc1ccc(COc2ccc(-c3nnco3)cc2)cc1")
4.75
>>> reading("O=C1CC(c2ccccc2)C(=O)N1Cc1cccs1 (stereo not given)")
-0.212
>>> reading("CCOC(=O)C(=CNc1cc(C(F)(F)F)ccc1NCc1ccccc1)C(=O)OCC")
1.63
>>> reading("Cn1cnc([N+](=O)[O-])c1N1CCN(C(c2ccccc2)c2ccccc2)CC1")
0.986
>>> reading("Fc1cccc(Cl)c1CN1CCN(c2ncnc3scc(-c4cccs4)c23)CC1")
-3.44
>>> reading("O=C(Nc1ccc(OCc2ccccc2)cc1)OCC1CN(Cc2ccccc2)CCO1 (stereo not given)")
5.09
>>> reading("NC(=O)C1CCN(CC(O)CSc2ccc(F)cc2)CC1 (stereo not given)")
0.714
>>> reading("O=C(Nn1cnnc1)c1cccs1")
5.13
>>> reading("Cc1ccc(S(=O)(=O)NC(=O)NCCSCc2ccco2)cc1")
5.18
>>> reading("O=C1c2cc(S(=O)(=O)Oc3ccccc3)ccc2-c2ccc(S(=O)(=O)Oc3ccccc3)cc21")
5.56
>>> reading("CC1=NOC(=O)/C1=C\\c1ccccc1")
3.58
>>> reading("Cc1c(-c2cnc(NC(=O)c3ccccc3)s2)sc2ccc(Cl)cc12")
-9.03
>>> reading("Cc1cc2nsnc2cc1Cl")
0.257
>>> reading("CCCN(CCC)S(=O)(=O)c1ccc(C(=O)O/N=C(\\C)c2ccccc2O)cc1")
0.391
>>> reading("Cc1cccc(Cl)c1NC(=S)NCCNC(=O)OC(C)(C)C")
-2.72
>>> reading("COC(=O)c1ccccc1-c1c2ccc(=O)cc-2oc2cc(O)ccc12")
61.2
>>> reading("CSc1nc(N)c2ccccc2n1")
4.47
>>> reading("CSc1nc2c(c(/C=C/c3ccccc3)c1C#N)CCC2")
0.0789
>>> reading("O/N=C/c1ccc(F)c(Cl)c1")
2.78
>>> reading("Cc1cc(NCc2cccnc2)no1")
1.95
>>> reading("Cc1nc(C)c(-c2ccnc(-c3ccc(Cl)cc3)n2)s1")
4.12
>>> reading("CC1(C)C=Cc2cc(-c3noc(-c4ccccc4)n3)ccc2O1")
-23.5
>>> reading("NC(=O)c1cccc2c1OCCO2")
6.89
>>> reading("COC(=O)c1ccccc1NC(=O)c1ccc(Oc2cc(Cl)cc(Cl)c2)o1")
-2.65
>>> reading("O=C(NNC(=O)C1c2ccccc2Oc2ccccc21)c1cccc(F)c1")
0.119

---

Collected inhibition values appear next to each entry.
# MEASUREMENT_TARGET: Protein phosphatase methylesterase 1 (Homo sapiens) (UniProt Q9Y570)
# PROCEDURE_DETAILS: inhibitors of human PME-1 in Maybridge library (AID 2291)
# CONDITION: recombinant PME-1, FP-Rh probe fluorescence polarization; at 9 µM; hits give high values
The whole screen tested about 16,000 compounds, of which about 75 (0.5%) were called active. The list comes from a sample in which actives are over-represented; it also holds close analogues and randomly drawn compounds.
REPORTED_ENDPOINT: inhibition (%)

>>> reading("O=C1Nc2ccccc2C12NNC(=S)NN2")
65.2
>>> reading("CCOC(=O)/C(C#N)=C/N/S(C)=N/N=C/c1ccc(N(C)C)cc1 (stereo unspecified)")
4.21
>>> reading("O=C(NNc1ccccc1C(F)(F)F)NS(=O)(=O)c1ccc(Cl)cc1")
5.25
>>> reading("O=C(O)c1onc2ccccc12")
-2.58
>>> reading("O=C(Cc1cccc2ccccc12)NNC(=O)Nc1ccc(Cl)cc1")
-12.8
>>> reading("COc1ccc(CCN=C(C)c2cc(Cl)cc(Cl)c2O)cc1OC")
0.059
>>> reading("CCOC(=O)c1cc(C)nc(Sc2ccccc2NC(=O)Nc2ccc(Cl)cc2)c1C#N")
25.2
>>> reading("O=C(NCc1cccnc1)c1cnc2ccccc2n1")
3.18
>>> reading("CC(=O)N1CCc2cc(NC(=S)Nc3ccccc3Cl)ccc21")
-0.615
>>> reading("Cn1c(CN2C(=O)CSc3ccc(C(F)(F)F)cc32)nnc1SCC(=O)c1ccccc1")
5.25
>>> reading("O=C(NCc1ccc2c(c1)OCO2)c1cccc2c1OCCCO2")
-4.73
